Target: BRAF V600E (Homo sapiens, UniProt P15056, V600E)
Construct: expressed in transfected cells
Sequence (P15056 whole entry V600E): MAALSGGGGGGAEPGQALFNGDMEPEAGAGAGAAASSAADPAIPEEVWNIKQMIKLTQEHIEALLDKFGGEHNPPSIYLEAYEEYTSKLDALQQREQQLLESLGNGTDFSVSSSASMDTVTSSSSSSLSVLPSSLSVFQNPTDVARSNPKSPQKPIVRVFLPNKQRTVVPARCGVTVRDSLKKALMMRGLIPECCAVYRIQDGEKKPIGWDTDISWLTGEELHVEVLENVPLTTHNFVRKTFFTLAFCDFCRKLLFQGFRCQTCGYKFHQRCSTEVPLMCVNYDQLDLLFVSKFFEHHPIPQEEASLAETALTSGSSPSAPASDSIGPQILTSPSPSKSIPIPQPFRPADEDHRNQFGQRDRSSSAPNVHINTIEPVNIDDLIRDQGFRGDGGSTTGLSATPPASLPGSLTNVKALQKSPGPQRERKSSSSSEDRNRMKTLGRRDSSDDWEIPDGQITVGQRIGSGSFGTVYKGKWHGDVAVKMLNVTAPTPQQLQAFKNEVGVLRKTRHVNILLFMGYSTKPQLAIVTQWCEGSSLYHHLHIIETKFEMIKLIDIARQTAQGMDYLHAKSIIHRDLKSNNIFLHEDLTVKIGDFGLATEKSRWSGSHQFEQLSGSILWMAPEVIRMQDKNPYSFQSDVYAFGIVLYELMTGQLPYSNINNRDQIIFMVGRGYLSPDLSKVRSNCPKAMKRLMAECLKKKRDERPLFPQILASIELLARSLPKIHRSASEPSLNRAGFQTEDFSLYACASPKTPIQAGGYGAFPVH
Experiment: Cellular assay of target protein degradation, T-Rex 293 cells stably transfected with HA-BRAF_V600E (HA immunofluorescence, high content imaging)
Type: cell-based
Settings: maximum degradation observed, T-Rex 293 HA-BRAF V600E
quantity_name: Dmax

{"columns": ["compound", "quantity_name", "observed_measurement"],
 "data": [
  ["C[C@H]1CC[C@H](C)N1S(=O)(=O)Nc1ccc(F)c(C(=O)c2c[nH]c3ncc(-c4ccc(N5CCC(CN6CCC(c7ccc8c(c7)CN(C7CCC(=O)NC7=O)C8=O)CC6)CC5)cc4)cc23)c1F (stereo partly shown)", "Dmax", "< 35%"],
  ["O=C1CC[C@@H](N2Cc3cc(N4CCC(CN5CCN(c6ccc(-c7cnc8[nH]cc(C(=O)c9c(F)ccc(NS(=O)(=O)N%10CC[C@@H](F)C%10)c9F)c8c7)cc6)CC5)CC4)c(F)cc3C2=O)C(=O)N1", "Dmax", "> 70%"],
  ["COc1cc(N2CC3(CN(CC4CCN(c5ccc(-c6cnc7[nH]cc(C(=O)c8c(F)ccc(NS(=O)(=O)N9CC[C@@H](F)C9)c8F)c7c6)cc5)CC4)C3)C2)cc2c1C(=O)N([C@H]1CCC(=O)NC1=O)C2", "Dmax", "35 to 70%"],
  ["O=C1CCC(c2ccc(C3CCN(CC4CCN(c5ccc(-c6cnc7[nH]cc(C(=O)c8c(F)ccc(NS(=O)(=O)N9CC[C@@H](F)C9)c8F)c7c6)cc5)CC4)CC3)cc2F)C(=O)N1 (stereo partly shown)", "Dmax", "< 35%"],
  ["Cc1c(NS(=O)(=O)N2CC[C@@H](F)C2)ccc(F)c1C(=O)c1c[nH]c2ncc(-c3ccc(N4CCC(CN5CCC(c6ccc7c(c6)CN([C@H]6CCC(=O)NC6=O)C7=O)CC5)CC4)cc3)cc12", "Dmax", "35 to 70%"],
  ["O=C1CC[C@H](N2Cc3cc(N4CCC(CN5CC6(C5)CN(c5ccc(-c7cnc8[nH]cc(C(=O)c9c(F)ccc(NS(=O)(=O)N%10CC[C@@H](F)C%10)c9F)c8c7)cc5)C6)CC4)c(F)cc3C2=O)C(=O)N1", "Dmax", "35 to 70%"],
  ["O=C1CC[C@@H](N2Cc3cc(C4CCN(CC5CCN(c6ccc(-c7cnc8[nH]cc(C(=O)c9c(F)ccc(NS(=O)(=O)N%10CCCC%10)c9F)c8c7)cc6)CC5)CC4)ccc3C2=O)C(=O)N1", "Dmax", "35 to 70%"],
  ["O=C1CCC(N2Cc3cc(CCOCCN4CCC(c5ccc(-c6cnc7[nH]cc(C(=O)c8c(F)ccc(NS(=O)(=O)N9CC[C@@H](F)C9)c8F)c7c6)cc5)CC4)ccc3C2=O)C(=O)N1 (stereo partly shown)", "Dmax", "35 to 70%"],
  ["O=C1CC[C@H](NC(=O)N2CCCc3c(N4CCN(CC5CCN(c6ccc(-c7cnc8[nH]cc(C(=O)c9c(F)ccc(NS(=O)(=O)N%10CC[C@@H](F)C%10)c9F)c8c7)cc6)CC5)CC4)ccnc32)C(=O)N1", "Dmax", "35 to 70%"],
  ["O=C1CC[C@H](N2Cc3cc(C4CCN(CC5CCN(c6ccc(-c7cnc8[nH]cc(C(=O)c9c(F)ccc(NS(=O)(=O)N%10CC[C@@H](F)C%10)c9F)c8c7)cc6)CC5)CC4)ccc3C2=O)C(=O)N1", "Dmax", "35 to 70%"]
]}
